ASSAY_COMMENT: Tanguay_ZF_120hpf_MORT_legacy: (Legacy) Oregon State University Tanguay Lab 120 Hour Post-fertilization zebrafish Assay for Mortality (AID 2283633)
Active and inactive are the calls of the source. Rule for the calls: active = hit-call score of the fitted dose curve at least 0.9, where 1 is the maximum; inconclusive = response in the unintended direction; inactive = score below 0.9.
Could you please pick one outcome from this set? active, inactive

Examples with answers:
INSERT INTO assay_data (compound, discrete_label) VALUES
  ('CCOC(=O)O[C@H](C)OC(=O)c1ccc2c(c1)cc(C(=O)NC1CCN(C(C)C)CC1)n2Cc1cc(-c2ccc(Cl)s2)on1', 'active'),
  ('O=C1CCC(C2CCCCC2)CC1', 'inactive'),
  ('O=C(O)Cc1cc(I)c(Oc2ccc(O)c(I)c2)c(I)c1', 'inactive'),
  ('Cc1ncc(CO)c(CO)c1O', 'inactive'),
  ('CC/C(=C(/CC)c1ccc(O)cc1)c1ccc(O)cc1', 'active'),
  ('O=C(Nc1ccc(Cl)cc1)Nc1ccc(Cl)c(Cl)c1', 'inactive');

Lookup: Look up the recorded call for COCC(C)OCC(C)OCC(C)O (configuration not stated) in this test.
Found: inactive

Lookup: Give the logged outcome of this assay for the following compound: CCCC(=O)OCCC(C)C
Found: inactive

Lookup: Fill in: this test's call for OCCO is ___
Found: inactive

Lookup: Outcome logged for CN(C)c1ccc(C(=C2C=CC(=[N+](C)C)C=C2)c2ccc(N(C)C)cc2)cc1 in this assay:
Found: active

Lookup: Tell me the recorded outcome of this test for CN1C(=O)N(c2ccccc2Br)Cc2cnc(Nc3ccc4c(c3)OCC(CO)O4)nc21 (configuration not stated) .
Found: inactive

Lookup: Could you please tell me the result logged for CN(C[C@@H](CC[N+]12CCC(C3CCCCC3)(CC1)CC2)c1ccc(Cl)c(Cl)c1)C(=O)c1cc(C(F)(F)F)cc(C(F)(F)F)c1 in this assay?
Found: active

* * *

ASSAY_COMMENT: APR_HepG2_p53Act_24hr: Apredica 24-hour HepG2 Assay for p53 Activation (AID 2282913);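 note: p53 protein immunofluorescence averaged per cell in HepG2 with Hoechst nuclei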
CONDITION_SET: high-content imaging, actives raise or lower the signal
The source made the active and inactive calls. Rule for the calls: active = hit-call score of the fitted dose curve at least 0.9, where 1 is the maximum; inactive = score below 0.9.
# valid calls are active, inactive; nothing else

Would you please look over these solved cases?
INSERT INTO results (compound, discrete_label) VALUES
  ('Cc1oc2c(NC(=O)c3c(Cl)cccc3Cl)cccc2c1C(C)(C)O', 'inactive'),
  ('CCCCOC(=O)CC(CC(=O)OCCCC)(OC(C)=O)C(=O)OCCCC', 'active');

Lookup: # lookup: test call for O=C(OCCCCCCOC(=O)c1ccccc1)c1ccccc1
Found: inactive

Lookup: Hi team, can someone confirm the assay call for Cc1ccc2oc(CN(Cc3ccccc3)C(=O)Nc3c(F)cc(F)cc3F)c(-c3ccc(Cl)cc3)c2c1 ?
Found: inactive

Lookup: What outcome does the record of this test show for C[C@]12CC[C@@H]3c4ccc(O)cc4CC[C@H]3[C@@H]1CC[C@H]2O ?
Found: active

Lookup: Outcome? O=c1ccc2ccccc2o1
Found: inactive

Lookup: I would be grateful if you could indicate the recorded call for O=C1CCC(C2CCCCC2)CC1 .
Found: inactive

Lookup: What call does the record list for Cc1occc1C(=O)Nc1ccc(C(=O)N2CCC(F)(F)/C(=C\C(=O)N3CCC(N4CCCCC4)CC3)c3ccccc32)cc1 ?
Found: inactive

* * *

Read-out: Transforming Growth Factor (TGFB1), TGFB1 (gene 7040)
ASSAY_COMMENT: LTEA_HepaRG_TGFB1: Life Technologies and Expression Analysis (LTEA) Assay for Transforming Growth Factor (TGFB1) Transporter using HepaRG (AID 2283533)
CONDITION_SET: mRNA level, 48 h; actives raise or lower the signal
The source made the active and inactive calls. The calls were made as follows: active = hit-call score of the fitted dose curve at least 0.9, where 1 is the maximum; inactive = score below 0.9.
Classes to choose from: active, inactive

# example entries with known answers
INSERT INTO measurements (molecule, discrete_label) VALUES
  ('CC(C)(O)c1ccc(CNC(=O)c2cccnc2Oc2ccc3nonc3c2)cc1', 'inactive'),
  ('Oc1ccccc1', 'inactive'),
  ('c1ccc2ccccc2c1', 'inactive'),
  ('CC[C@H](NC(=O)c1cc(F)ccc1NS(=O)(=O)c1cccc2cccnc12)c1ccccc1', 'inactive'),
  ('CC1=CC(=O)/C(=C(/C)O)C(=O)O1', 'inactive'),
  ('CCO[Si](CCCNC(N)=O)(OCC)OCC', 'inactive'),
  ('CN1C(=O)N(c2ccccc2Br)Cc2cnc(Nc3ccc4c(c3)OCC(CO)O4)nc21 (configuration not stated)', 'active'),
  ('CCCCCCCCN(C)CCCCCCCC', 'inactive'),
  ('O=C(OCCCCCCOC(=O)c1ccccc1)c1ccccc1', 'inactive'),
  ('NC(=O)c1nc(-c2cccc(-c3cc(F)ccc3OCC(F)(F)C(F)(F)F)c2)n[nH]1', 'inactive');

Lookup: What did the test return for c1ccc2n[nH]nc2c1 ?
Found: inactive

Lookup: For C[C@]12CC[C@@H]3c4ccc(O)cc4CC[C@H]3[C@@H]1CCC2=O , what call appears in the results of this test?
Found: inactive

* * *

ASSAY_COMMENT: CCTE_Padilla_ZF_144hpf_TERATOSCORE: (Legacy) CCTE's 144 Hour Post-fertilization zebrafish Assay Teratoscore, Padilla Lab (AID 2283679)
Active and inactive are the calls of the source. The calls were made as follows: active = hit-call score of the fitted dose curve at least 0.9, where 1 is the maximum; inactive = score below 0.9.
In this exercise, the only acceptable responses are TRUE for active, FALSE for inactive

Solved cases below.
INSERT INTO assay_data (compound, discrete_label) VALUES
  ('CCN(Cc1cccc(S(=O)(=O)O)c1)c1ccc(C(=C2C=CC(=[N+](CC)Cc3cccc(S(=O)(=O)O)c3)C=C2)c2ccccc2S(=O)(=O)[O-])cc1', 'FALSE'),
  ('O=c1c(-c2ccc(O)cc2)coc2cc(O)cc(O)c12', 'TRUE'),
  ('Clc1cc(Cl)c2c(c1)N=C1CCCCCN1C2', 'TRUE'),
  ('NCc1cccc(C2CCN(C(=O)c3ccc(C#Cc4ccccc4F)o3)CC2)c1', 'TRUE'),
  ('CCCCCc1ccc(N)cc1', 'TRUE');

We now examine a further molecule.
Lookup: Per the assay record, what outcome was assigned to O=CCCCC=O ?
Found: FALSE

* * *

Read-out: ABC Transporter (ABCC2), ABCC2 (gene 1244)
ASSAY_COMMENT: LTEA_HepaRG_ABCC2: Life Technologies and Expression Analysis (LTEA) Assay for ABC Transporter (ABCC2) using HepaRG (AID 2283464)
CONDITION_SET: mRNA level, 48 h; actives raise or lower the signal
Description: LTEA_HepaRG is a cell based, multiplexed-readout assay that uses HepaRG, a human liver cell line, with measurements taken at 48 hours after chemical dosing on a 96-well plate.LTEA_HepaRG_ABCC2 is one of 102 assay component(s) measured in the LTEA HepaRG cell culture assay. It is a marker of Steatosis/NR mediated transport.Data from the assay component LTEA_HepaRG_ABCC2 was analyzed into 1 endpoint. […]
Active and inactive are the calls of the source. The calls were made as follows: active = hit-call score of the fitted dose curve at least 0.9, where 1 is the maximum; inactive = score below 0.9.
# output must be one of 1 (yes) for active, 0 (no) for inactive

Field: example entries. Status: answers known.
INSERT INTO measurements (compound, discrete_label) VALUES
  ('O=C1CCC(C2CCCCC2)CC1', '0 (no)'),
  ('O=C(O)c1ccccc1C(=O)OCc1ccccc1', '0 (no)'),
  ('CN1C(=O)N(c2ccccc2Br)Cc2cnc(Nc3ccc4c(c3)OCC(CO)O4)nc21 (stereo unspecified)', '1 (yes)'),
  ('CCCCCCCCCCCC[N+](C)(C)C', '1 (yes)'),
  ('O=C=NCCCCCCN=C=O', '0 (no)');

Lookup: Dear colleague, could you share the recorded outcome for Cc1cc2c(cc1C(F)(F)F)N(C(=O)Nc1ccc(Oc3cccnc3C)nc1)CC2 when you have a moment?
Found: 0 (no)

Lookup: I would be grateful if you could indicate the recorded call for Clc1ccccc1C(c1ccccc1)(c1ccccc1)n1ccnc1 .
Found: 0 (no)

Lookup: # fetch the recorded call for O=C(O)Cc1cc(I)c(Oc2ccc(O)c(I)c2)c(I)c1 here
Found: 0 (no)

Lookup: Please state the recorded outcome for this compound: Cc1cn([C@H]2C[C@H](N=[N+]=[N-])[C@@H](CO)O2)c(=O)[nH]c1=O
Found: 0 (no)

Lookup: In this assay, the call recorded for COc1ccc2cc(S(=O)(=O)N[C@H](CC(=O)N[C@H](Cc3ccc(CN4[C@H](C)CCC[C@@H]4C)cc3)C(=O)N(C)C(C)C)c3ccc4c(c3)OCO4)ccc2c1 was what?
Found: 1 (yes)

* * *

ASSAY_COMMENT: APR_HepG2_MicrotubuleCSK_72hr: Apredica 72-hour HepG2 Assay for Microtubule CSK Stabilty (AID 2282919)
CONDITION_SET: HepG2 microtubule cytoskeleton, high-content imaging, actives raise or lower the signal
Active and inactive are the calls of the source. Rule for the calls: active = hit-call score of the fitted dose curve at least 0.9, where 1 is the maximum; inactive = score below 0.9.
Thanks in advance; please answer with one of these: 1 (yes) = active, 0 (no) = inactive

Examples from the recorded data:
INSERT INTO results (compound, discrete_label) VALUES
  ('O=c1ccc2ccccc2o1', '0 (no)'),
  ('O=C1O[C@H]([C@@H](O)CO)C(O)=C1O', '0 (no)'),
  ('O=C(O)Cc1cc(I)c(Oc2ccc(O)c(I)c2)c(I)c1', '0 (no)'),
  ('O=C1c2ccccc2C(=O)N1CCc1noc(-c2ccc(CN3CCCCCC3)s2)n1', '0 (no)'),
  ('CN(C)c1ccc(C(=C2C=CC(=[N+](C)C)C=C2)c2ccc(N(C)C)cc2)cc1', '1 (yes)'),
  ('C[C@]12CC[C@@H]3c4ccc(O)cc4CC[C@H]3[C@@H]1CCC2=O', '0 (no)'),
  ('CCCCCCCCOc1ccc(C(=O)c2ccccc2)c(O)c1', '0 (no)'),
  ('C[C@]12CC[C@@H]3c4ccc(O)cc4CC[C@H]3[C@@H]1CC[C@H]2O', '0 (no)'),
  ('O=C=NCCCCCCN=C=O', '0 (no)'),
  ('COc1cccc([C@H](O)C2CCN(CCc3ccc(F)cc3)CC2)c1OC', '1 (yes)');

Lookup: Called result for Cc1ncc(CO)c(CO)c1O
Found: 0 (no)

Lookup: Dear colleague, could you share the recorded outcome for CC[C@@H]1C[C@H](N(Cc2cc(C(F)(F)F)cc(C(F)(F)F)c2)C(C)=O)c2cc(C(F)(F)F)ccc2N1C(=O)OC(C)C when you have a moment?
Found: 0 (no)

Lookup: State the result this test recorded for CC[C@H](NC(=O)c1cc(F)ccc1NS(=O)(=O)c1cccc2cccnc12)c1ccccc1 .
Found: 0 (no)

Lookup: Test call, this compound: CN1C(=O)N(c2ccccc2Br)Cc2cnc(Nc3ccc4c(c3)OCC(CO)O4)nc21 (stereo not given)
Found: 0 (no)

Lookup: # lookup: test call for Oc1ccc2ccccc2c1
Found: 0 (no)
